Provenance of the data: the RNAGym collection of RNA variant scans (doi:10.7554/elife.90254)

B1: LINE1-mini (parent)
chain: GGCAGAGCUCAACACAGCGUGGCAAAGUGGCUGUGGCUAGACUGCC

# Variants of: B1
# assay details: self-cleavage, relative activity (ratio to wild type); higher = more cleavage; in vitro, sequencing; the parent is a self-cleaving ribozyme
This listing pairs variants with measured self-cleavage.
measurement label: self-cleavage

[[record]]
mutation_notation = "A14C C46A"
numeric_result = 0.13

[[record]]
mutation_notation = "C3G G27A"
numeric_result = 0.21

[[record]]
mutation_notation = "A11U C45U"
numeric_result = 0.23

[[record]]
mutation_notation = "A12C G35U"
numeric_result = 0.03

[[record]]
mutation_notation = "C8U C42U"
numeric_result = 0.17

[[record]]
mutation_notation = "C8G U34G"
numeric_result = 0.08

[[record]]
mutation_notation = "A14U G36C"
numeric_result = 0.08

[[record]]
mutation_notation = "G5A A39C"
numeric_result = 0.24

[[record]]
mutation_notation = "U9C A16U"
numeric_result = 0.04

[[record]]
mutation_notation = "C15G A25G"
numeric_result = 0.06

[[record]]
mutation_notation = "A12U U43A"
numeric_result = 0.04

[[record]]
mutation_notation = "A12G G35U"
numeric_result = 0.04

[[record]]
mutation_notation = "G5C"
numeric_result = 0.07

[[record]]
mutation_notation = "G5U G35U"
numeric_result = 0.15

[[record]]
mutation_notation = "G5C U20G"
numeric_result = 0.06

[[record]]
mutation_notation = "C10U G30A"
numeric_result = 0.54

[[record]]
mutation_notation = "G2U A25G"
numeric_result = 0.03

[[record]]
mutation_notation = "A16U C31G"
numeric_result = 0.04

[[record]]
mutation_notation = "G7C G35U"
numeric_result = 0.18

[[record]]
mutation_notation = "A6C C15A"
numeric_result = 0.1

[[record]]
mutation_notation = "C13G C18U"
numeric_result = 0.09

[[record]]
mutation_notation = "A12U G22U"
numeric_result = 0.29

[[record]]
mutation_notation = "U20C G36A"
numeric_result = 0.11

[[record]]
mutation_notation = "G22U G27C"
numeric_result = 0.57

[[record]]
mutation_notation = "G19U U38G"
numeric_result = 0.02

[[record]]
mutation_notation = "C10G A24G"
numeric_result = 0.1

[[record]]
mutation_notation = "C8U U38A"
numeric_result = 0.27

[[record]]
mutation_notation = "G19C A41C"
numeric_result = 0.05

[[record]]
mutation_notation = "G33U C45G"
numeric_result = 0.07

[[record]]
mutation_notation = "G17A C42A"
numeric_result = 0.07

[[record]]
mutation_notation = "A24C U38A"
numeric_result = 0.3

[[record]]
mutation_notation = "A12U G29A"
numeric_result = 0.31

[[record]]
mutation_notation = "C31U G36C"
numeric_result = 0.07

[[record]]
mutation_notation = "U9C A11U"
numeric_result = 0.03

[[record]]
mutation_notation = "C23G U28G"
numeric_result = 0.89

[[record]]
mutation_notation = "G29C G36A"
numeric_result = 0.02

[[record]]
mutation_notation = "A25C G35U"
numeric_result = 0.12

[[record]]
mutation_notation = "G19A U38G"
numeric_result = 0.02

[[record]]
mutation_notation = "A26G U28G"
numeric_result = 0.37

[[record]]
mutation_notation = "U28G G29U"
numeric_result = 0.61

[[record]]
mutation_notation = "A12C A24C"
numeric_result = 0.01

[[record]]
mutation_notation = "G30A G33C"
numeric_result = 0.07

[[record]]
mutation_notation = "G7C G22U"
numeric_result = 0.12

[[record]]
mutation_notation = "U32G G36C"
numeric_result = 0.05

[[record]]
mutation_notation = "C15G A25C"
numeric_result = 0.02

[[record]]
mutation_notation = "G21A A39U"
numeric_result = 1.82

